# experimental details: protein stability index of a GFP-peptide fusion (GPS, HEK-293T) (PSI 1-6); higher = more stable;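 further: 24-mer peptide tiles fused after GFP, lentivirally expressed, FACS-sorted into six equal bins by GFP/DsRed ratio, decoded by Illumina sequencing, PSI is the read-weighted mean bin number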
# setup conditions: treatment: DMSO; c terminus: a fixed tail appended
Kindly supply the reported protein stability index values for the records listed here.
Write the number on its own, no unit after it.

Requested read-out: protein stability index. Entry: SNVSSSGSINLLESPQLATLAEDV [MAP2]
5.03

Also PMKKNNNLYSWDDFMELGRSIPDT [ACSBG2] ?
3.74

Also MPALEGAPHTPPLPRRPRKGSSEL [RNF208] ?
5.11

Also FGHVMHQICAQVSFFFPPVNLPIS [NLN] ?
2.71

Also AGRNVLRWDLSPEQIKTRTEELIV [NLN] ?
2.52

Also ANAFQQEAQTSGKERLLLSAAVPA [CHIT1] ?
4.03

Also PVHIHPAFARQAAQEPSAVPRAGP [FOXJ1] ?
4.45

Also QLQDFNIPQAGGWGPWGPWGDCSR [ADAMTS4] ?
2.56

Also SACSFTNSDMQILTASGDGTCALW [GNB5] ?
2.33

Also LANLRGLSEEERSEKAMLRSRIEE [CCDC89] ?
4.67

Also IGMSAAGMGLTGTMGMGMPNIAMT [CLINT1] ?
2.62

Also EGEPATQRQDPAAAQEGEDEGASA [GAGE1] ?
5.55

Also VLQERVRIFAHKIYLSTSSSKFYD [RHOBTB2] ?
2.6
